Collected from the literature: IC50 of various compounds toward MERTK (Homo sapiens, UniProt Q12866).

Observe how each entry below is paired with its result.
- Compound: "CC(C)c1ccc(CN2CC[C@@H](NC(=O)c3cc(-c4cnn(C)c4)cnc3N)C2)cc1"
  Assay result: "> 1000 nM"
- Compound: "C[C@@H](CC(F)(F)F)Nc1ncc2c(O[C@H]3C[C@H](O)C3)ncc([C@H]3CC[C@H](O)CC3)c2n1"
  Assay result: "≤ 100 nM"

Okay, next one:
Find IC50 (MERTK (Homo sapiens, UniProt Q12866)) for the entry COC[C@H](C)Nc1ncc2c(-c3cnn([C@H]4CCC(C(=O)OC(C)(C)C)C4)c3)cc([C@H]3CC[C@H](O)CC3)n2n1 (stereo partly shown)
≤ 100 nM

---

Hi, quick share: literature IC50 data for UniProt:Q12866, several sources combined.

- Molecule: "Cn1cc(-c2cnc(N)c(C(=O)N[C@@H]3CCN(C(=O)Oc4ccc(Cl)c(Cl)c4)C3)c2)cn1"
  IC50: "> 1000 nM"
- Molecule: "Cn1cc(-c2cnc(N)c(C(=O)N[C@@H]3CCN(C(=O)c4ccc(-c5ccc(OCc6ccccc6)cc5)cc4)C3)c2)cn1"
  IC50: "> 1000 nM"
- Molecule: "COC[C@H](C)Nc1ncc2c(-c3cnn(C[C@@H]4CCC(=O)N4)c3)cc([C@H]3CC[C@H](O)CC3)n2n1"
  IC50: "≤ 100 nM"
- Molecule: "Nc1ncc(-c2ccc(C(=O)NC3CCOCC3)cc2)cc1C(=O)N[C@@H]1CCN(C(=O)c2ccc(-c3ccccc3Cl)cc2)C1"
  IC50: "10 to 100 nM"
- Molecule: "O[C@H]1CC[C@H](c2cnc(OC3CCNCC3)c3cnc(Nc4ccc(Cl)c(Cl)c4)nc32)CC1"
  IC50: "≤ 100 nM"
- Molecule: "C[C@@H]1CCCN1C1(C)CCc2ccc(-c3cnc4[nH]nc(-c5ccc(N6CCOCC6)cc5)c4c3)cc2CC1 (stereo partly shown)"
  IC50: "> 1000 nM"

Okay, now this molecule:
# input molecule: CCOc1ccn(-c2ccc(F)cc2)c(=O)c1C(=O)Nc1ccc(Oc2ccnc3cc(OCCCN4CCN(C(C)=O)CC4)c4c(c23)OCCO4)c(F)c1 ; wanted: its IC50
≤ 50 nM

---

IC50 for MERTK (Homo sapiens, UniProt Q12866), merged from several publications.

Record excerpt, results attached:
- Compound: "COC[C@H](C)Nc1ncc2c(C3CC3)ncc([C@H]3CC[C@H](O)CC3)c2n1"
  IC50: "≤ 100 nM"
- Compound: "Nc1ncc(-c2cnn(C3CCNCC3)c2)cc1-c1nnc(-c2nc(C(F)(F)F)cs2)o1"
  IC50: "< 500 nM"
- Compound: "CN(C)Cc1ccc(Oc2ccc(-c3ccc(C(=O)N4CC[C@@H](NC(=O)c5cc(-c6cnn(C)c6)cnc5N)C4)cc3)cc2)cc1"
  IC50: "10 to 100 nM"

Lab request: please report IC50 under test system MERTK (Homo sapiens, UniProt Q12866) for CN(c1ccc2cc(C(=O)N3CC[C@@H](NC(=O)c4cc(-c5cnn(C)c5)cnc4N)C3)ccc2c1)C1CCN(CCO)CC1
10 to 100 nM

Tell me reported IC50 for CCOc1ccn(-c2ccc(F)cc2)c(=O)c1C(=O)Nc1ccc(Oc2ccnc3cc(OC(C)C)c4c(c23)OCCO4)c(F)c1 , tested with MERTK (Homo sapiens, UniProt Q12866).
≤ 50 nM

Please provide the recorded IC50 for COC1CCN(S(=O)(=O)c2ccc(-c3n[nH]c4ncc(-c5ccc6c(c5)CCC(C)(N5CCC[C@H]5C)CC6)cc34)cc2)CC1 (some centres unmarked) , tested on MERTK (Homo sapiens, UniProt Q12866).
> 1000 nM

Short answer please: IC50, MERTK (Homo sapiens, UniProt Q12866), entry CC[C@H](C)Nc1ncc2c(OCC34CCC(O)(CC3)CC4)ncc([C@H]3CC[C@H](O)CC3)c2n1
≤ 100 nM

Record CCc1ccc(CN2CC[C@@H](NC(=O)c3cc(-c4cnn(C)c4)cnc3N)C2)cc1 : what is its IC50 with MERTK (Homo sapiens, UniProt Q12866)?
> 1000 nM

Please tell me: IC50 of COC[C@H](C)Nc1ncc2c(-c3ccnc(N4CCN(C)CC4)c3)cc([C@H]3CC[C@H](O)CC3)n2n1 , system MERTK (Homo sapiens, UniProt Q12866)?
≤ 100 nM

API: value(readout=IC50, system=MERTK (Homo sapiens, UniProt Q12866)) for record CNC(=O)Cn1cc(-c2cc([C@H]3CC[C@H](O)CC3)n3nc(N[C@@H](C)COC)ncc23)cn1
≤ 100 nM

API: value(readout=IC50, system=MERTK (Homo sapiens, UniProt Q12866)) for record Nc1ncc(-c2cnn(C3CCOCC3)c2)cc1-c1cc(-c2ccccc2)on1
1000 to 10000 nM

Report IC50 for COC[C@H](C)Nc1ncc2c(Nc3ccncc3)ncc([C@H]3CC[C@H](O)CC3)c2n1 tested on MERTK (Homo sapiens, UniProt Q12866).
≤ 100 nM

# returns recorded IC50 (system: MERTK (Homo sapiens, UniProt Q12866)) for COC[C@H](C)Nc1ncc2c(-c3cnn(C4COC4)c3)cc([C@H]3CC[C@H](O)C(F)(F)C3)n2n1
≤ 100 nM

Give recorded IC50 with MERTK (Homo sapiens, UniProt Q12866) for the following compound: COC[C@H](C)Nc1ncc2c(-c3cc([C@H]4CC[C@H](O)CC4)n4nc(N[C@@H](C)COC)ncc34)cc([C@H]3CC[C@H](O)CC3)n2n1
≤ 100 nM

# query: IC50 | item O[C@H]1CC[C@H](c2cnc(OC3CCNCC3)c3cnc(Nc4ccccc4)nc32)CC1 | system: MERTK (Homo sapiens, UniProt Q12866)
≤ 100 nM

Request: IC50, test system MERTK (Homo sapiens, UniProt Q12866), entry Cn1cc(-c2cnc(N)c(C(=O)N[C@@H]3CCN(C(=O)c4ccc(/C=C/c5ccccn5)cc4)C3)c2)cn1
100 to 1000 nM

---

// note: IC50 values for MERTK (Homo sapiens) were reported in different studies

Here are 3 compounds together with their reported answers.
- Compound: "Cn1cc(-c2cnc(N)c(C(=O)N[C@@H]3CCN(C(=O)Oc4ccc(Oc5ccc(CO)cc5)cc4)C3)c2)cn1"
  IC50: "100 to 1000 nM"
- Compound: "Nc1ncc(-c2cnn(C3CCNCC3)c2)cc1C(=O)N[C@@H]1CCN(Cc2ccccc2C(F)(F)F)C1"
  IC50: "> 1000 nM"
- Compound: "CN1CCN(c2ccc(-c3ccc(C(=O)N4CC[C@@H](NC(=O)c5cc(-c6cnn(C)c6)cnc5N)C4)cc3)cc2)CC1"
  IC50: "> 1000 nM"

For COC[C@H](C)Nc1ncc2c(-c3ccnc(N4CCOCC4)c3)cc([C@H]3CC[C@](C)(O)CC3)n2n1 , what is its reported IC50?
≤ 100 nM

Endpoint output: IC50 of CC[C@H](C)Nc1ncc2c(O[C@H]3CC[C@@H](N(C)C)C3)ncc([C@H]3CC[C@H](O)CC3)c2n1 . Value?
≤ 100 nM

Would you mind telling me what IC50 value was observed for Cn1cc(C(=O)Nc2ccc(Oc3ccnc4cc(OCC(C)(C)O)c5c(c34)OCCO5)cc2Cl)c(=O)n(-c2ccc(F)cc2)c1=O ?
50 to 500 nM

Endpoint output: IC50 of CCn1cc(C(=O)Nc2ccc(Oc3ccnc4cc(OCCCN5CCOCC5)c5c(c34)OCCO5)c(F)c2)c(=O)n(-c2ccc(F)cc2)c1=O . Value?
≤ 50 nM

So what does the record say about IC50 for CCCC(C)Nc1ncc2c(=O)n([C@@H]3CCCN(C)C3)cc([C@H]3CC[C@H](O)CC3)c2n1 (some centres unmarked) ?
≤ 100 nM

Which IC50 is listed for Cc1nn(C)c(C)c1-c1ccc(C(=O)N2CC[C@@H](NC(=O)c3cc(-c4cnn(C)c4)cnc3N)C2)cc1 ?
100 to 1000 nM

Returns the measured IC50 for the input compound. Input: C[C@@H]1CCCN1C1(C)CCc2ccc(-c3cnc4[nH]nc(-c5ccc(S(N)(=O)=O)c(Cl)c5)c4c3)cc2CC1 (some centres unmarked)
< 100 nM

Quick check: IC50 of COC[C@H](C)Nc1ncc2c(-c3cccc(N4C[C@H]5COC[C@H]5C4)c3)cc([C@H]3CC[C@H](O)CC3)n2n1 ?
≤ 100 nM

---

// merged dataset of IC50 values, system = MERTK (Homo sapiens), multiple refs

Record lookup: for MERTK (Homo sapiens), what IC50 belongs to Nc1ncc(-c2ccc(CO)cc2)cc1C(=O)N[C@@H]1CCN(Cc2ccc(Cl)cc2)C1 ?
100 to 1000 nM

Lookup: IC50 / MERTK (Homo sapiens) / C[C@@H]1CCCN1C1(C)CCc2ccc(-c3cnc4[nH]nc(-c5ccc(C(=O)N[C@@H]6CCOC6)cc5)c4c3)cc2CC1 (stereo partly shown)
> 1000 nM

Request body: readout IC50, system MERTK (Homo sapiens), query CCCC(C)Nc1ncc2c(OC[C@H]3CC[C@@H](O)CC3)ncc([C@H]3CC[C@H](O)CC3)c2n1 (stereo partly shown) . Return the value.
≤ 100 nM
